- SYSTEM_TESTED: Anti-CD28 scFv (VH-linker 1-VL) (biotinylated for capture on neutravidin plates)
- Sequence (scFv, as listed by the source): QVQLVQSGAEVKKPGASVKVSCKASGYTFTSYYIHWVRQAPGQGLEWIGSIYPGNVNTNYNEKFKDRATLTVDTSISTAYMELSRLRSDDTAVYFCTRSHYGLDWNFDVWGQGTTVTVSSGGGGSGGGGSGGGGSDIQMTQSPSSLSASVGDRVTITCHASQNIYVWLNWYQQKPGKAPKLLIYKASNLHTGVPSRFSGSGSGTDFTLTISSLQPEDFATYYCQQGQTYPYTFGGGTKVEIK
- ASSAY_EXPLANATION: phage ELISA, scFv captured on plate, competitor soluble CD28;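 note: crude clonal phage supernatants added to wells pre-incubated with soluble CD28 or with blocking buffer only as control, bound phage read out with HRP-linked anti-M13 antibody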
Measured Phage binding ELISA CD28 scFv signal in presence of CD28, listed per entry.
Answer with a number only.

Example cases with answers are listed next.
| BINDER | ASSAY_VALUE |
| --- | --- |
| MDWCPKFLWDLCFA [Phage-164] | 0.139 |
| MDWCPRYMWNECFN [Phage-215] | 0.128 |
| MDWCPWILWNECFN [Phage-179] | 0.137 |

Ask: Returns the measured Phage binding ELISA CD28 scFv signal in presence of CD28 for the input binder. Input: MDWCPRDLWNVCFN [Phage-169]
Result: 0.108

Ask: Returns the measured Phage binding ELISA CD28 scFv signal in presence of CD28 for the input binder. Input: MDWCPRDLWDVCFA [Phage-139]
Result: 0.28

Ask: Returns the measured Phage binding ELISA CD28 scFv signal in presence of CD28 for the input binder. Input: MDWCPRAMWHECFY [Phage-207]
Result: 0.129

Ask: Returns the measured Phage binding ELISA CD28 scFv signal in presence of CD28 for the input binder. Input: MNWCPSDLWHLCFN [Phage-170]
Result: 0.131

Ask: Returns the measured Phage binding ELISA CD28 scFv signal in presence of CD28 for the input binder. Input: MDWCPSYLWDQCFF [Phage-188]
Result: 0.079

The reported measurements were obtained from patent US20230357447A1.
